system.under.test: ActRIIA and ActRIIB (on TGFB/SMAD SBE Reporter HEK293 cells) (human)
Sequence (chain, as listed by the source, chain 1 of 2): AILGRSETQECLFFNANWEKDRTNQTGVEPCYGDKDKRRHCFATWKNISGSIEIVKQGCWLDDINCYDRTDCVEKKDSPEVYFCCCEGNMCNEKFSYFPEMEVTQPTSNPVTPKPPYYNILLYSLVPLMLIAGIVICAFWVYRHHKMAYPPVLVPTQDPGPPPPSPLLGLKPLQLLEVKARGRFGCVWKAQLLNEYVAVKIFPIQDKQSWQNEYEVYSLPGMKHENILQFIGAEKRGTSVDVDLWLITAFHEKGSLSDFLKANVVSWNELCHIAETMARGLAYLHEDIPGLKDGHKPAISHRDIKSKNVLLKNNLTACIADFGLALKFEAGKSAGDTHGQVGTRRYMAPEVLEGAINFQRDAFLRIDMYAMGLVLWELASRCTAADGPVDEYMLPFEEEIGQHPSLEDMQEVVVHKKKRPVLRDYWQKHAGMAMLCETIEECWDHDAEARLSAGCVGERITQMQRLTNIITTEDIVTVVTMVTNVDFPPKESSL
Sequence (chain, as listed by the source, chain 2 of 2): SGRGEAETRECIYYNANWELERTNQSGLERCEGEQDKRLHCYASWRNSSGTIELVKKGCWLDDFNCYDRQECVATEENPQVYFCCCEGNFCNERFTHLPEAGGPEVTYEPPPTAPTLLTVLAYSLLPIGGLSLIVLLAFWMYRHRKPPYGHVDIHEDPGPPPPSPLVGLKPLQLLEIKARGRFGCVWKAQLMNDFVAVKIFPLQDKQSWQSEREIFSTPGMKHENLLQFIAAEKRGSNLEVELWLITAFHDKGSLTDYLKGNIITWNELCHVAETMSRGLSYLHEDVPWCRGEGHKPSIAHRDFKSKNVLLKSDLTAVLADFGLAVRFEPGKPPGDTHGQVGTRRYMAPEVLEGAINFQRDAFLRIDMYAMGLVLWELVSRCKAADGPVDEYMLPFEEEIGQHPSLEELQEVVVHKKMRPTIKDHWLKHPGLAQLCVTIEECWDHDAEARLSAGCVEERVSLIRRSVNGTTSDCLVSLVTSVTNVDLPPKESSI
experimental.protocol: cell-based or functional assay
# note: exactly 0.4 nM is not below, so it is Condition not met; use Condition met for IC50, Activin SMAD RGA strictly under it

-- ask Identify whether the binder Antibody Hefaknöpfla (antibody, V domains shown, full-length IgG) VH: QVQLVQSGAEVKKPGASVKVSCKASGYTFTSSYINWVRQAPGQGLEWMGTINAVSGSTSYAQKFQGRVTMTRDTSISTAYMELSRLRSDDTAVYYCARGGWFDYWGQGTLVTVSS VL: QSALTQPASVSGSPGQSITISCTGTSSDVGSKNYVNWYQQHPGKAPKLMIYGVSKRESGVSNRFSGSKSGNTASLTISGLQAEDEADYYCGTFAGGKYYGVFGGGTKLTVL records IC50, Activin SMAD RGA below 0.4 nM.
-- reply Condition met

-- ask Identify whether the binder Antibody Biiramooscht (antibody, V domains shown, full-length IgG) VH: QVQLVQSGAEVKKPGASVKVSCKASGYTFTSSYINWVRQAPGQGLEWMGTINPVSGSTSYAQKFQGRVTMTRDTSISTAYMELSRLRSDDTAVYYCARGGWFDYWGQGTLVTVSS VL: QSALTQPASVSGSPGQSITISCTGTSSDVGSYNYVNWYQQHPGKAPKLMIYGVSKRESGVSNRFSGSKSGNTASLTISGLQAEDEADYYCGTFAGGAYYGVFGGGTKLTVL records IC50, Activin SMAD RGA below 0.4 nM.
-- reply Condition met

-- ask Identify whether the binder Hefaknöpfla Fab (Fab, V domains shown, Fab) VH: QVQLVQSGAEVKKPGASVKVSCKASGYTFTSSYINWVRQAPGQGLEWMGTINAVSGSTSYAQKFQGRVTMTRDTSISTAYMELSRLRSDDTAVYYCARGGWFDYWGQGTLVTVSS VL: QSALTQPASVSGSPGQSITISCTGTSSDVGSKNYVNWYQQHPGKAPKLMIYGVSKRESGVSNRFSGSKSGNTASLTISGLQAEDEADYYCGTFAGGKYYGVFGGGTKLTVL records IC50, Activin SMAD RGA below 0.4 nM.
-- reply Condition not met

-- ask Identify whether the binder Ochsamaulsalat Fab (Fab, V domains shown, Fab) VH: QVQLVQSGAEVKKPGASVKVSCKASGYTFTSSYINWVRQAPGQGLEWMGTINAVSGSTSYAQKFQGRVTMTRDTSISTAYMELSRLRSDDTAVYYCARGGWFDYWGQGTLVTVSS VL: QSALTQPASVSGSPGQSITISCTGTSSDVGSRNYVNWYQQHPGKAPKLMIYGVSKRESGVSNRFSGSKSGNTASLTISGLQAEDEADYYCGTFAGGDYYGVFGGGTKLTVL records IC50, Activin SMAD RGA below 0.4 nM.
-- reply Condition not met

Data provenance is patent US20250243286A1.
